assayed target: hVR1 (Homo sapiens, UniProt Q8NER1)
Sequence (Q8NER1 whole entry): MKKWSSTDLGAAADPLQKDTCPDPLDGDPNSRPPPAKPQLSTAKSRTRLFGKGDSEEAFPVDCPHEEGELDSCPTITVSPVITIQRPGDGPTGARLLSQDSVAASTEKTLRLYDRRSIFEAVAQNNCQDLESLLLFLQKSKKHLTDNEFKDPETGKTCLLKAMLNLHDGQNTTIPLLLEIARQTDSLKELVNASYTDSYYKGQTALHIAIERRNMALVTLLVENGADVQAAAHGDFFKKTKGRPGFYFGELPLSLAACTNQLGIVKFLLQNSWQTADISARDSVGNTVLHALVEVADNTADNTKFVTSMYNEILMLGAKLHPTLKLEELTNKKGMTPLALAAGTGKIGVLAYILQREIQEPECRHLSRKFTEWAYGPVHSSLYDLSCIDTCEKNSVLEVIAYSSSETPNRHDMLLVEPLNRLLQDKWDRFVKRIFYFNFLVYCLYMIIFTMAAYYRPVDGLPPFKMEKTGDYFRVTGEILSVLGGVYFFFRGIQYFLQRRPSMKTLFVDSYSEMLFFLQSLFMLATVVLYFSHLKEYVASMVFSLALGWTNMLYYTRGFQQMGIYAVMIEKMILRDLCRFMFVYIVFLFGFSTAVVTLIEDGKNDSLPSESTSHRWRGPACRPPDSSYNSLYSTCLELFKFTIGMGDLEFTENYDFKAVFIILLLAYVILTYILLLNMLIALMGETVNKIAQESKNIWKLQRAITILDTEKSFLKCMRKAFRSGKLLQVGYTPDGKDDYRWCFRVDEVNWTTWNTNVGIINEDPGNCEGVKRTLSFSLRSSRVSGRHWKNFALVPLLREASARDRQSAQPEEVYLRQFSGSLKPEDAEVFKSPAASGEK
test description: Human VR1 (hVR1) Functional Assay (FLIPR intracellular calcium, capsaicin challenge)
measurement setup: capsaicin 0.030 μM; HEK293 cells expressing hVR1
pIC50: −log10 of the molar value.
quantity name: pIC50

Field: example entries. Status: answers known.
[
  {
    "compound": "OCc1ccccc1-c1cc2nc(/C=C/c3ccc(C(F)(F)F)cc3)[nH]c2cc1Cl",
    "reported result": 7.32
  },
  {
    "compound": "CNS(=O)(=O)c1ccccc1-c1ccc2[nH]c(/C=C/c3ccc(C#N)cc3)nc2c1",
    "reported result": 7.55
  },
  {
    "compound": "NC(=O)c1ccccc1-c1ccc2[nH]c(/C=C/c3ccc(S(=O)(=O)C(F)(F)F)cc3)nc2c1",
    "reported result": 6.52
  }
]

[P] CC(C)(O)c1ccccc1-c1ccc2[nH]c(C3CC3c3ccc(OC(F)(F)F)cc3)nc2c1 (centres unmarked)
[Q] CNS(=O)(=O)c1ccccc1-c1ccc2[nH]c(/C=C/c3ccc(Cl)c(Cl)c3)nc2c1
Lab note: check whether P or Q shows the higher recorded pIC50. Write the label of whichever entry you select.
Q

[A] NC(=O)c1ccccc1-c1cc2nc(/C=C/c3ccc(C(F)(F)F)cc3)[nH]c2cc1F
[B] NS(=O)(=O)c1ccccc1-c1ccc2[nH]c(CCc3ccc(Cl)cc3)nc2c1
Could you check which of A and B has a smaller value for pIC50? Write the label of whichever entry you select.
A
(A: 6.59, B: 7.51)

---

Test system: male Sprague-Dawley rats
test description: Chemically-Induced Models of Inflammatory Pain (CFA, thermal hyperalgesia, radiant heat)
Type: in vivo
measurement setup: 5 h, rat, 10 mg/kg oral, maximum during 300 min test, read-out: % Reversal (maximal percent reversal of hypersensitivity)
Description: Compounds of the present invention were tested in animal models of inflammation and inflammatory pain. […] Only withdrawal responses that were quick hind paw movements (with or without licking of the hind paw) were recorded. […] Hypersensitivity was evaluated 24 hr after CFA. […]
quantity name: inhibition in vivo at 10 mg/kg (%)
Write down the numeric answer in % and omit the unit.

Tell me the measured inhibition in vivo at 10 mg/kg of "CC(C)(O)c1ccccc1-c1ccc2[nH]c(/C=C/c3cccc(C(F)(F)F)c3)nc2c1" , please.
56

Tell me the measured inhibition in vivo at 10 mg/kg of "CC(C)(O)c1ccccc1-c1ccc2[nH]c(/C=C/c3ccc(OC(F)(F)F)cc3)nc2c1" , please.
31

Tell me the measured inhibition in vivo at 10 mg/kg of "CS(=O)(=O)Nc1ccccc1-c1ccc2[nH]c(/C=C/c3ccc(OC(F)(F)F)cc3)nc2c1" , please.
18

Tell me the measured inhibition in vivo at 10 mg/kg of "CC(C)(O)c1ccccc1-c1ccc2[nH]c(/C=C/c3ccc(C(F)(F)F)cc3)nc2c1" , please.
133

Tell me the measured inhibition in vivo at 10 mg/kg of "CS(=O)(=O)Nc1ccccc1-c1ccc2[nH]c(CCc3ccc(C(F)(F)F)cc3)nc2c1" , please.
72

Tell me the measured inhibition in vivo at 10 mg/kg of "CC(C)(O)c1ccccc1-c1ccc2[nH]c(CCc3ccc(C(F)(F)F)cc3)nc2c1" , please.
65

Tell me the measured inhibition in vivo at 10 mg/kg of "CS(=O)(=O)Nc1ccccc1-c1ccc2[nH]c(/C=C/c3ccc(C(F)(F)F)cc3)nc2c1" , please.
104
